Give Mean % WT Binding for every item shown.
- measured.target: human CD33 V31A (human, UniProt P20138 18-364)
- Sequence (P20138 18-364 V31A limits assumed): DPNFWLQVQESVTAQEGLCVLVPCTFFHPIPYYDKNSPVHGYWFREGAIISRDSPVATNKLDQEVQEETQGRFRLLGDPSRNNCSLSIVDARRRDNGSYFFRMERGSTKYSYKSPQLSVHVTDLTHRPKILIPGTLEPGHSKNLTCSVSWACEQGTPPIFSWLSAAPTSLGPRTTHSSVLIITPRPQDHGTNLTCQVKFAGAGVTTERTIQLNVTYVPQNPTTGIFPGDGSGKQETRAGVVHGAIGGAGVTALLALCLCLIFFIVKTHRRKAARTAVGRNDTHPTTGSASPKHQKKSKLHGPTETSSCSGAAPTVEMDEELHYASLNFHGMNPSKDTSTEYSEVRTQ
- test: alanine scan, flow cytometry;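 also: HEK293-T cells transiently expressing single-residue alanine mutants of CD33 (alanine swapped to serine), antibody binding read by fluorescence in duplicate, background-subtracted, expressed relative to wild-type CD33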
Please give a number only; it is taken to be in % WT.

Input: Which value of Mean % WT Binding has been reported for Refmab #2 (antibody, V domains shown, Full-length format is human IgG1 Fc silent (PG-LALA); The alanine scan used IgG or Fab) VH: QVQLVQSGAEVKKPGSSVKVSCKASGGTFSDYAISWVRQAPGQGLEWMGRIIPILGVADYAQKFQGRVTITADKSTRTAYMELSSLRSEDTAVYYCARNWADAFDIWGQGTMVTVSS VL: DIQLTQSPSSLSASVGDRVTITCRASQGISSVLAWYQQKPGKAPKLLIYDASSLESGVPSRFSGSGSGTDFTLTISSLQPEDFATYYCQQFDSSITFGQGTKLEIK in the records?
Output: 106

Input: Which value of Mean % WT Binding has been reported for Refmab #4 (antibody, V domains shown, Full-length format is human IgG1 Fc silent (PG-LALA); The alanine scan used IgG or Fab) VH: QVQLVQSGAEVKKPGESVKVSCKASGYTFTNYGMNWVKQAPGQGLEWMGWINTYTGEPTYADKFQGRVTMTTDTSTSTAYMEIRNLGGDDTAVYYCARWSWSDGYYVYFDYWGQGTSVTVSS VL: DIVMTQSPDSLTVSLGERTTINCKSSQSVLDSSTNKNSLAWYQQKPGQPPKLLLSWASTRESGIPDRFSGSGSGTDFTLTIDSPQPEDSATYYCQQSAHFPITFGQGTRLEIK in the records?
Output: 97.9

Input: Which value of Mean % WT Binding has been reported for Refmab #1 (antibody, V domains shown, Full-length format is human IgG1 (Absolute Antibody Ab00283-10.0); The alanine scan used IgG or Fab; also called hP67.6) VH: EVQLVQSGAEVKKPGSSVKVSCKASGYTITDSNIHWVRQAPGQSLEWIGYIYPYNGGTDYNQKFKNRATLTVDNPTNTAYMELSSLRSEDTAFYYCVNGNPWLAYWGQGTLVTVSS VL: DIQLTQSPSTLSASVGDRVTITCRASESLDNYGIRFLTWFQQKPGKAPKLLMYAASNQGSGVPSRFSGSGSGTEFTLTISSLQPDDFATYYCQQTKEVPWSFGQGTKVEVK in the records?
Output: 87

Input: Which value of Mean % WT Binding has been reported for Refmab #3 (antibody, V domains shown, Full-length format is human IgG1 Fc silent (PG-LALA); The alanine scan used IgG or Fab) VH: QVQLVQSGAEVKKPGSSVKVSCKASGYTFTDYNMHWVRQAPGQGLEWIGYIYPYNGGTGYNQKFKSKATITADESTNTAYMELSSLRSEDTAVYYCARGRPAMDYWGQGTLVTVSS VL: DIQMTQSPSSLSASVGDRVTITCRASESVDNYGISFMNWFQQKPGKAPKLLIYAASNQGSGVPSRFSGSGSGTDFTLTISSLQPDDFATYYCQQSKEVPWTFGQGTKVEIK in the records?
Output: 127
